- target-of-assay: CYP3A4 (Homo sapiens, UniProt P08684)
- Sequence (P08684 whole entry): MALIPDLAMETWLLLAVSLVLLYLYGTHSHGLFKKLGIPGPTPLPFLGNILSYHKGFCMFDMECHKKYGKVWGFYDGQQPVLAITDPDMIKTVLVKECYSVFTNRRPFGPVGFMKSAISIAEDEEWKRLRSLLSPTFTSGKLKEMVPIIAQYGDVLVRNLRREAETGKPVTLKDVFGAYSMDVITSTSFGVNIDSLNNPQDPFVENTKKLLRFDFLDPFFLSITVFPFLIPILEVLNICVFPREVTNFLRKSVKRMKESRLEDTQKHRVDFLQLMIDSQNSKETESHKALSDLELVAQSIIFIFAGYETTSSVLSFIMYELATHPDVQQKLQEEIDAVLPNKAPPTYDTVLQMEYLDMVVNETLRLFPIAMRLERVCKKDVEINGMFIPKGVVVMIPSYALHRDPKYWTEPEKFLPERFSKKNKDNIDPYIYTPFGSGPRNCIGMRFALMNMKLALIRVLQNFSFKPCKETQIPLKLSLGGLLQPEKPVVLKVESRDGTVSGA
- protocol: Inhibition of CYP3A4 (unknown origin) at 10 uM using testosterone as substrate incubated for 60 mins by LC-MS/MS analysis relative to control
- Type: ADME
- condition-notes: probe testosterone
Give measured inhibition at 1 h, 10 µM for each item. Keep answers brief.
A number alone suffices; assume %.

Identify the reported inhibition at 1 h, 10 µM for the following entry. "Cc1ccc(-c2ccncc2)c(C(=O)N2CCC(O)(Cc3ccccc3)CC2)c1"
67

Identify the reported inhibition at 1 h, 10 µM for the following entry. "O=C(c1cc(F)ccc1-c1ccncc1)N1CCC(O)(Cc2ccccc2)CC1"
55

Identify the reported inhibition at 1 h, 10 µM for the following entry. "Cc1ccc(C(=O)N2CCC(O)(Cc3ccccc3)CC2)c(-c2ccncc2)c1"
65

Identify the reported inhibition at 1 h, 10 µM for the following entry. "COc1ccc(-c2ccncc2)c(C(=O)N2CCC(O)(Cc3ccccc3)CC2)c1"
67

Identify the reported inhibition at 1 h, 10 µM for the following entry. "Cc1ccc(-c2ccnc(C)c2)c(C(=O)N2CCC(O)(Cc3ccccc3)CC2)c1"
60

Hey, just so you know, these numbers are from ChEMBL document CHEMBL5236552.
